Test: Inhibition of bovine tubulin polymerization after 20 mins by spectrophotometry
Parameters: species or system Bos taurus
Parameter: IC50. Scope: all listed entries.
Output spec: scalar in µg/mL, unitless text.

O=C(/C=C/c1cc(Cl)cc(Cl)c1Oc1c([N+](=O)[O-])cc(C(F)(F)F)cc1[N+](=O)[O-])c1ccc(F)cc1    9.62
O=C(/C=C/c1cc(Cl)cc(Cl)c1Oc1c([N+](=O)[O-])cc(C(F)(F)F)cc1[N+](=O)[O-])c1ccc(Cl)cc1    6.34

The compound listed as COc1ccc(C(=O)/C=C/c2cc(Br)ccc2Oc2c([N+](=O)[O-])cc(C(F)(F)F)cc2[N+](=O)[O-])cc1 has a reported IC50 of 4.08

The recorded IC50 for COc1ccc(/C=C\c2cc(OC)c(OC)c(OC)c2)cc1O [COMBRETASTATIN A4] is 0.81

The compound COc1cc2c(c(OC)c1OC)-c1ccc(OC)c(=O)cc1[C@@H](NC(C)=O)CC2 [COLCHICINE] showed IC50 equal to 1.7
